Test system: bermudagrass (Cynodon dactylon)
Assay: Test C preemergence
Format: in vivo
Conditions: preemergence, Rate 31 g/ha, scale 0 to 100
Source text: […]
metric_name: Plant response rating, Bermudagrass

molecule	value_reported
CC(C)Oc1cccc(N2CCC(n3ccc(C(C)(C)C)n3)C2=O)c1 (centres unmarked)	80
Cc1cc(C)nc(N2CCC(n3ccc(C(C)(C)C)n3)C2=O)c1 (centres unmarked)	60
COC(=O)c1cccc(N2CCC(n3ccc(C(C)(C)C)n3)C2=O)c1 (centres unmarked)	60
CC(C)(C)c1ccn(C2SCN(c3cccc(OC(F)F)c3)C2=O)n1 (centres unmarked)	100
CC(C)OC(=O)c1cccc(N2CCC(n3ccc(C(C)(C)C)n3)C2=O)c1 (centres unmarked)	0

* * *

System: bermudagrass (Cynodon dactylon)
Test: Test C preemergence
Type: in vivo
Settings: preemergence; Rate 125 g/ha; scale 0 to 100, 0 no effect, 100 complete control

compound	assay_target	Plant response rating, Bermudagrass
CC(C)(C)c1ccn(C2SCN(c3cccc(OC(F)F)c3)C2=O)n1 (stereo not drawn) [Compound 36]	bermudagrass (Cynodon dactylon)	100
CC(C)(C)c1ccn(C2CCN(c3ccc(Cl)c(Cl)c3)C2=O)n1 (stereo not drawn) [Compound 34]	bermudagrass (Cynodon dactylon)	90
COc1cc(OC)cc(N2CCC(n3ccc(C(C)(C)C)n3)C2=O)c1 (stereo not drawn) [Compound 71]	bermudagrass (Cynodon dactylon)	90
O=C1C(n2ccc(C3CCC3)n2)SCN1c1cccc(OC(F)(F)F)c1 (stereo not drawn) [Compound 38]	bermudagrass (Cynodon dactylon)	90
O=C1C(n2ccc(C3CCCCC3)n2)SCN1c1cccc(OC(F)(F)F)c1 (stereo not drawn) [Compound 50]	bermudagrass (Cynodon dactylon)	100
CC(C)(C)c1ccn(C2CCN(c3cccc(Br)c3)C2=O)n1 (stereo not drawn) [Compound 33]	bermudagrass (Cynodon dactylon)	100
CC(C)c1ccn(C2SCN(c3cccc(OC(F)F)c3)C2=O)n1 (stereo not drawn) [Compound 44]	bermudagrass (Cynodon dactylon)	100
O=C1C(n2ccc(C3CCC3)n2)SCN1c1cccc(OC(F)F)c1 (stereo not drawn) [Compound 45]	bermudagrass (Cynodon dactylon)	90
CCC(CC)c1ccn(C2SCN(c3cccc(C(F)(F)F)c3)C2=O)n1 (stereo not drawn) [Compound 25]	bermudagrass (Cynodon dactylon)	100

* * *

System: velvetleaf (Abutilon theophrasti)
Test: Test C postemergence
Type: in vivo
Details: Rate 62 g/ha, scale 0 to 100
Documented Plant response rating, Velvetleaf across a set of compounds
metric_name: Plant response rating, Velvetleaf

compound	value_reported
CCCOc1cc(N2CCC(n3ccc(C(C)(C)C)n3)C2=O)ccc1C (stereo not drawn) [Compound 107]	30
Cc1ccc(N2CCC(n3ccc(C(C)(C)C)n3)C2=O)cc1OCCCl (stereo not drawn) [Compound 109]	40
CCCC(C)c1ccn(C2CCN(c3ccc(Cl)c(OC)c3)C2=O)n1 (stereo not drawn) [Compound 121]	0
COc1cc(N2CCC(n3ccc(C(C)C)n3)C2=O)ccc1Cl (stereo not drawn) [Compound 120]	0
COc1cc(N2CCC(n3ccc(C(C)(C)C)n3)C2=O)ccc1Cl (stereo not drawn) [Compound 117]	20
CCC(C)c1ccn(C2CCN(c3ccc(C)c(OC)c3)C2=O)n1 (stereo not drawn) [Compound 80]	20

* * *

Test system: giant foxtail (Setaria viridis)
Assay: Test A postemergence, sprayed to runoff
Type: in vivo
Conditions: Rate 500 g/ha, approx. eleven days
metric_name: Plant response rating (visual injury vs untreated controls)

molecule	value_reported
CC1(C)CCc2cn(C3CCN(c4cccc(C(F)(F)F)c4)C3=O)nc21 (stereo not shown)	10
Cc1ccn(C2CCN(c3cccc(C(F)(F)F)c3)C2=O)n1 (stereo not shown)	0
O=C1C(n2ccc(C3CC3)n2)SCN1c1cccc(C(F)(F)F)c1 (stereo not shown)	50
CC(C)(C)c1ccn(C2SCN(c3cccc(C(F)(F)F)c3)C2=O)n1 (stereo not shown)	30

* * *

Tested on: duck salad (Heteranthera limosa)
Test: Test C flooded paddy test
Type: in vivo
Conditions: Flooded Paddy; Rate 250 g/ha; scale 0 to 100, 0 no effect, 100 complete control
Flag rule - Ducksalad plant response rating less than 50 flags MET; the remaining entries get NOT MET.

compound	group
CCOc1cccc(N2CCC(n3ccc(C(C)C)n3)C2=O)c1 (stereo not shown) [Compound 128]	NOT MET
CCC(CC)c1ccn(C2CCN(c3ccc(Cl)c(OC)c3)C2=O)n1 (stereo not shown) [Compound 118]	NOT MET
CC(C)(C)c1ccn(C2CCN(c3ccc(F)c(Cl)c3)C2=O)n1 (stereo not shown) [Compound 46]	MET
CC1(C)CCc2cn(C3CCN(c4cccc(C(F)(F)F)c4)C3=O)nc21 (stereo not shown) [Compound 10]	NOT MET
CCCC(C)c1ccn(C2OCN(c3cccc(C(F)(F)F)c3)C2=O)n1 (stereo not shown) [Compound 89]	MET
CC(C)c1ccn(C2SCN(c3cccc(OC(F)F)c3)C2=O)n1 (stereo not shown) [Compound 44]	NOT MET
CC(C)Oc1cccc(N2CCC(n3ccc(C(C)C)n3)C2=O)c1 (stereo not shown) [Compound 82]	NOT MET
Cc1ccc(N2CCC(n3ccc(C(C)(C)C)n3)C2=O)cc1OC(F)F (stereo not shown) [Compound 79]	NOT MET
CCC(C)c1ccn(C2OCN(c3cccc(C(F)(F)F)c3)C2=O)n1 (stereo not shown) [Compound 24]	NOT MET
CC(C)c1ccn(C2SCN(c3cccc(C(F)(F)F)c3)C2=O)n1 (stereo not shown) [Compound 23]	NOT MET
Cc1c(F)cc(N2CCC(n3ccc(C(C)(C)C)n3)C2=O)cc1Br (stereo not shown) [Compound 78]	MET
CCC(CC)c1ccn(C2CCN(c3cccc(OC)c3)C2=O)n1 (stereo not shown) [Compound 96]	NOT MET
CCCOC(=O)c1cccc(N2CCC(n3ccc(C(C)(C)C)n3)C2=O)c1 (stereo not shown) [Compound 123]	NOT MET
CC(C)(C)c1ccn(C2CCN(c3cccc(OC(F)(F)F)c3)C2=O)n1 (stereo not shown) [Compound 49]	NOT MET
CCCC(C)c1ccn(C2SCN(c3cccc(OC(F)(F)F)c3)C2=O)n1 (stereo not shown) [Compound 90]	NOT MET
CC1(c2ccn(C3OCN(c4cccc(C(F)(F)F)c4)C3=O)n2)CC1 (stereo not shown) [Compound 62]	MET
CC(C)(C)c1ccn(C2CCN(c3cccc(S(C)(=O)=O)c3)C2=O)n1 (stereo not shown) [Compound 102]	MET
CCC(CC)c1ccn(C2SCN(c3cccc(C(F)(F)F)c3)C2=O)n1 (stereo not shown) [Compound 21]	NOT MET
CC(C)(C)c1ccn(C2CCN(c3cccc(OC(F)F)c3)C2=O)n1 (stereo not shown) [Compound 76]	NOT MET
CC(C)OC(=O)c1cccc(N2CCC(n3ccc(C(C)(C)C)n3)C2=O)c1 (stereo not shown) [Compound 124]	MET
Cc1ccc(N2CCC(n3ccc(C(C)(C)C)n3)C2=O)cc1OCCCl (stereo not shown) [Compound 109]	NOT MET
CCCOc1cc(N2CCC(n3ccc(C(C)(C)C)n3)C2=O)ccc1C (stereo not shown) [Compound 107]	MET
CCC(CC)c1ccn(C2OCN(c3cccc(OC(F)F)c3)C2=O)n1 (stereo not shown) [Compound 131]	NOT MET
CC(C)(C)c1ccn(C2SCN(c3cccc(OC(F)(F)F)c3)C2=O)n1 (stereo not shown) [Compound 30]	NOT MET
CC1CCc2cn(C3CCN(c4cccc(C(F)(F)F)c4)C3=O)nc21 (stereo not shown) [Compound 11]	MET
COc1cc(N2CCC(n3ccc(C(C)C)n3)C2=O)ccc1C (stereo not shown) [Compound 85]	NOT MET
CC(C)(C)c1ccn(C2SCN(c3cccc(OC(F)F)c3)C2=O)n1 (stereo not shown) [Compound 36]	NOT MET
CCCC(C)c1ccn(C2CCN(c3cccc(OCC)c3)C2=O)n1 (stereo not shown) [Compound 129]	NOT MET
CCC(C)c1ccn(C2OCN(c3cccc(OC(F)(F)F)c3)C2=O)n1 (stereo not shown) [Compound 67]	NOT MET
CCCCC(CCCC)c1ccn(C2SCN(c3cccc(C(F)(F)F)c3)C2=O)n1 (stereo not shown) [Compound 116]	MET
CCC(C)c1ccn(C2SCN(c3cccc(OC(F)(F)F)c3)C2=O)n1 (stereo not shown) [Compound 40]	NOT MET
Cc1c(Cl)cc(N2CCC(n3ccc(C(C)(C)C)n3)C2=O)cc1Cl (stereo not shown) [Compound 74]	MET
CCC(CC)c1ccn(C2OCN(c3cccc(OC(F)(F)F)c3)C2=O)n1 (stereo not shown) [Compound 68]	NOT MET

* * *

Tested on: crabgrass (Digitaria sanguinalis)
Assay: Test C postemergence
Type: in vivo
Conditions: Rate 62 g/ha, scale 0 to 100
Readings of Plant response rating, Crabgrass for the listed compounds

compound	Plant response rating, Crabgrass
COc1cc(N2CCC(n3ccc(C(C)C)n3)C2=O)ccc1Br (stereo not shown) [Compound 140]	40
CCC(CC)c1ccn(C2CCN(c3ccc(C)c(OC)c3)C2=O)n1 (stereo not shown) [Compound 81]	0
COc1cc(N2CCC(n3ccc(C(C)C)n3)C2=O)ccc1C (stereo not shown) [Compound 85]	30
Cc1ccc(N2CCC(n3ccc(C(C)(C)C)n3)C2=O)cc1I (stereo not shown) [Compound 122]	0
CCCOc1cc(N2CCC(n3ccc(C(C)(C)C)n3)C2=O)ccc1C (stereo not shown) [Compound 107]	0
CCCC(C)c1ccn(C2OCN(c3cccc(OC(F)(F)F)c3)C2=O)n1 (stereo not shown) [Compound 91]	20
CCC(C)c1ccn(C2SCN(c3cccc(OC(F)(F)F)c3)C2=O)n1 (stereo not shown) [Compound 40]	0
